Values from patent US20240207263A1

# TEST TARGET: ATM (Homo sapiens (Human), UniProt Q13315)
# Sequence (Q13315 whole entry, looked up): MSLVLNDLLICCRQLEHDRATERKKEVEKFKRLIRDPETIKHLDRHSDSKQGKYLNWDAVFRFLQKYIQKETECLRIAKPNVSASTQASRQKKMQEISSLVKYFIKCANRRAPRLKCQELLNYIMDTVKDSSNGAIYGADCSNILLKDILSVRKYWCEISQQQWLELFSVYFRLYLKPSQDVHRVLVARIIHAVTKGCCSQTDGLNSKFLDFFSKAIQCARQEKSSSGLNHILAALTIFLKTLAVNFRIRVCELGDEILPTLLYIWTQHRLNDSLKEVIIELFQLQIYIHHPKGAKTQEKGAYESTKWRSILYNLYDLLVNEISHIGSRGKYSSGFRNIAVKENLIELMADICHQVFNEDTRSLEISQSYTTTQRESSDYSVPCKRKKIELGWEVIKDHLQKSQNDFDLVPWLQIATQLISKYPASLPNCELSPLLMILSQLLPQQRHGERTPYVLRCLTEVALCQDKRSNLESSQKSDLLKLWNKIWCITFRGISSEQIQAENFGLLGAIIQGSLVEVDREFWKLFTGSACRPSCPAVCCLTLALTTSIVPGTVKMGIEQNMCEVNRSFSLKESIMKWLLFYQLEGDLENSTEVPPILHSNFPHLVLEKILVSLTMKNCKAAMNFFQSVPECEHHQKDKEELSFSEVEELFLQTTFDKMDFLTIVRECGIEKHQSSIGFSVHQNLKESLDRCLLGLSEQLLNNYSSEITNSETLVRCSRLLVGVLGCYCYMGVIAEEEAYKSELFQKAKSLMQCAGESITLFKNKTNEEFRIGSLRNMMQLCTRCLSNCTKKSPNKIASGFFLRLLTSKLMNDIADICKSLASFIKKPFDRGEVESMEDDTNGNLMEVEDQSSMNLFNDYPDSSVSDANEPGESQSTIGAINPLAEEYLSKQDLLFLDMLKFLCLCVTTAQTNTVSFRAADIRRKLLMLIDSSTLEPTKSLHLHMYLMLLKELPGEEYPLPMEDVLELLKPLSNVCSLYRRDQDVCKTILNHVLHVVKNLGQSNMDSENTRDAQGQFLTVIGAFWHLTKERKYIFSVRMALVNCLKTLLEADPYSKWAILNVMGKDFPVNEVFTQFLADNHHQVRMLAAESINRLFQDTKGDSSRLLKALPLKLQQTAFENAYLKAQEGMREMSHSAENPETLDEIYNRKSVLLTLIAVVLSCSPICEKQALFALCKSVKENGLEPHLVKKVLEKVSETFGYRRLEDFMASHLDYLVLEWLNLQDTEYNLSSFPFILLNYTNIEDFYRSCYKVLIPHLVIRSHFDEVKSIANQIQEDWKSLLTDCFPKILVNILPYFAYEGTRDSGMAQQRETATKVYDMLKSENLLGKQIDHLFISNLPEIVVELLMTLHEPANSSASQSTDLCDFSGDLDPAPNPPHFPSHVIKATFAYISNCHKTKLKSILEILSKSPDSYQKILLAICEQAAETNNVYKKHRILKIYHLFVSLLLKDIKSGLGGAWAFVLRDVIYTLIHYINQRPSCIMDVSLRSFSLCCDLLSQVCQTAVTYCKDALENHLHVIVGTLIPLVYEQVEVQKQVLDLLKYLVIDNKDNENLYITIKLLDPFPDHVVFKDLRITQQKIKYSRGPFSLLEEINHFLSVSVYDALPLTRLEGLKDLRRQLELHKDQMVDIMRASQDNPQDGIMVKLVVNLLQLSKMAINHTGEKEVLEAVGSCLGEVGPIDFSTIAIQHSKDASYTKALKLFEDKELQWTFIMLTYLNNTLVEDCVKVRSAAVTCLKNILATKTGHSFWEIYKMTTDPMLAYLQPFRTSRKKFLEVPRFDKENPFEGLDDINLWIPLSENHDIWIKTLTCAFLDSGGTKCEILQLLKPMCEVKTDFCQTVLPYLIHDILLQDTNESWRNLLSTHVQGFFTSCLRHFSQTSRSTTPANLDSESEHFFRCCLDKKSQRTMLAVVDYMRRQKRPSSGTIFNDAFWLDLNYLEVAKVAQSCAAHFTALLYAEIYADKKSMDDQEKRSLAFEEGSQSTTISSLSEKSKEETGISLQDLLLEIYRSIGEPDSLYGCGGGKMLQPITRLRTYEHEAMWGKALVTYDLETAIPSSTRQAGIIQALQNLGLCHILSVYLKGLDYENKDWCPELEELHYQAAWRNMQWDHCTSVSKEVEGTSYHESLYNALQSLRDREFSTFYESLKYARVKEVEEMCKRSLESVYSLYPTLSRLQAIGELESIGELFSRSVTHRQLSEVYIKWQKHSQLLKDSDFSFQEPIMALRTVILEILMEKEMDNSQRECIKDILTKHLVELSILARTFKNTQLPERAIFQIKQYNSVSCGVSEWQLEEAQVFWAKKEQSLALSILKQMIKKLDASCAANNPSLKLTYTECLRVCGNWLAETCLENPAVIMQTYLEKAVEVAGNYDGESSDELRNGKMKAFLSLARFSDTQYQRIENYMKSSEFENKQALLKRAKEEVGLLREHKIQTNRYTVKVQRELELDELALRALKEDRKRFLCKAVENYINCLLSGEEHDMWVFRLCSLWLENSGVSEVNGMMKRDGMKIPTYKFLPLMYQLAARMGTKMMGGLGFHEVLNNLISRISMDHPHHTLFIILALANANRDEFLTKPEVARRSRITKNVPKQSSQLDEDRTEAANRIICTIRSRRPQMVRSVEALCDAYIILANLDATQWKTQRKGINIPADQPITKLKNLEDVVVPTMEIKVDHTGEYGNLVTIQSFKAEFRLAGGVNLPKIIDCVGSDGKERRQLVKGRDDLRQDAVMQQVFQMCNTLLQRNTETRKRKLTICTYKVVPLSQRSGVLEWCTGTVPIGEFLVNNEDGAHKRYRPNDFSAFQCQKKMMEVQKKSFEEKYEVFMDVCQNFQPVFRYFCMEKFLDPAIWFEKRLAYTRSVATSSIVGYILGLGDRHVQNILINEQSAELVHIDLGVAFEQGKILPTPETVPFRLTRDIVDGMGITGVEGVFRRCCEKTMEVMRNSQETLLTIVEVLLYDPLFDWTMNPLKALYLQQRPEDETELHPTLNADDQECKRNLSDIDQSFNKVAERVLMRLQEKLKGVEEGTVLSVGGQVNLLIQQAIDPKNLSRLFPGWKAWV
# ASSAY REMARKS: biochemical
# Assay type: biochemical
# MEASUREMENT PARAMETERS: read-out: ATM IC50
I'd appreciate it if you marked entries label 1 when IC50 is lower than 50 nM and label 0 when it is not.

The examples below pair each entry with its known result.
CC(C)n1c(=O)n(C)c2nnc3ccc(-c4ccc([C@@H](C)OCCN5CC6CC6C5)nc4)cc3c21 (stereo partly drawn)    label 1
CC(C)n1c(=O)n(C)c2nnc3ccc(-c4ccc(COCCN5CCOCC5)nc4)cc3c21    label 0
CC(C)n1c(=O)n(C)c2nnc3cc(F)c(-c4ccc([C@@H](C)OCCN5CCC(F)CC5)nc4)cc3c21    label 1

Criterion: IC50 strictly below 50 nM. Is it met by CC(C)n1c(=O)n(C)c2nnc3ccc(-c4ccc([C@@H](C)OCCN5CC[C@H](C)C5)nc4)cc3c21 ?
label 1
